- Tested on: AncSZ;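 also: 11-residue human phosphosite peptides and single-mutation variants displayed on the E. coli surface, counted by deep sequencing, each peptide's frequency after selection divided by its frequency in the unselected input library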;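 also: frequency after pTyr selection over input frequency; kinase dosed for 20-30% of maximal phosphorylation in three min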
- Assay name: phosphorylation enrichment, bacterial display (enrichment ratio); higher = better substrate or ligand; peptides without Tyr show the background
Classification by phosphorylation enrichment | ranges: low bracket: < 0.7; middle bracket: ≥ 0.7 and < 1; high bracket: ≥ 1

// query Exercise: read the entry GDNNIYVTKII [DLG1_Y349_S347N] and state which class it falls under.
// result middle bracket

// query State the class of the sequence shown: MTKEQYIKMNQ [ARFGEF2_Y797_R802Q]
// result low bracket

// query Please indicate the class for VVTFSYKPAGN [RBL2_Y544_P547A] based on its phosphorylation enrichment.
// result middle bracket

// query Sort into band: FRTGHYLCNAC [GATA1_Y223_D218Y_YF]
// result low bracket

// query Dear colleague, I would appreciate it if you could identify the bin for RSRSPYSPVLR [CDK13_Y399] and reply at your convenience.
// result middle bracket

// query Which class does SIKHKYVTALF [KCNH2_Y611_D609H_YF] fall in?
// result low bracket

// query Sort KELAPYDENRF [RPS19_Y48_W52R] into one of the categories.
// result high bracket

// query Looking at PLFRVYGLESL [INSR_Y94_L89P] , which class would you pick?
// result high bracket

// query Where would LEYNEYFRDLN [HPRT1_Y198_D194E] land among the classes by reported phosphorylation enrichment?
// result high bracket

// query Could you place GIATGYLVLKE [DNMT3B_Y588] in its proper category? Many thanks.
// result middle bracket

// query Which phosphorylation enrichment category applies to GPIEVYLCPEE [E2F3_Y349] here?
// result high bracket

// query Exam item: assign RKVLVYDKLNV [ROR2_Y624_N620K] to the correct category.
// result middle bracket

// query Assign a bin to EVGRVYLFLQP [ITGA2B_Y360]
// result high bracket

// query Category lookup for the sequence DPADRYLTEQY [CDKL5_Y286_C291Y]
// result middle bracket

// query Form: Item = GTCGGYCSVLG [RAB18_Y202_A198T] ; Class = ?
// result low bracket

// query Band for the recorded phosphorylation enrichment of YGAHNYHPLPV [OAT_Y55] ?
// result low bracket

// query Which category fits this record: EPSVPYRGTVF [GLI3_Y104]
// result low bracket

// query Lab log: LAAAGYDVEKN [H1-3_Y72] — assign phosphorylation enrichment category
// result middle bracket

// query GET /class?item= PTTKTYFPQFD [HBA1_Y43_H46Q]
// result middle bracket

// query Please let me know in which category the item GRFSGYKSKHG [EPHA3_Y570_C568S] belongs.
// result low bracket

// query Sort ADDSYYTVRSA [ZAP70_Y493_A495V] into one of the categories.
// result high bracket

// query Determine which band this sequence sits in: CTLLPYFSAPV [DGKE_Y269_R273P_YF]
// result high bracket

// query Exercise: read the entry LNNIIYRVERA [CUX2_Y1470] and state which class it falls under.
// result high bracket

// query Please let me know in which category the item RFVTRYIFNRE [HLA-DQB1_Y62_YF] belongs.
// result high bracket

// query Sort into band: LARHMYDKEYY [MET_Y1230_D1228H]
// result high bracket

----------
Record form. Attribute: SH2 binding enrichment. Fill in for each entry.
- Assay target: Grb2 SH2 (UniProt P62993)
- Sequence (P62993 whole entry, looked up): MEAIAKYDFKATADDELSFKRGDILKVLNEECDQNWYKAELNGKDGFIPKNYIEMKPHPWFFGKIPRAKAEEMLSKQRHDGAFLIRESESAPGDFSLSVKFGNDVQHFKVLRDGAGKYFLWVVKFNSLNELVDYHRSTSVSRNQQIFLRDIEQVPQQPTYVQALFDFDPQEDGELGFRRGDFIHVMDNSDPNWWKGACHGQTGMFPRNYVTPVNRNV
- Assay name: SH2 binding enrichment of the phosphorylated peptide, bacterial display (enrichment ratio); higher = better substrate or ligand; peptides without Tyr show the background
// response body must contain only the number

The recorded SH2 binding enrichment for entry WAMLAYNRSKL [WWOX_Y293] equals 1.29

// YADGVYLALEE [DUOX2_Y70_Q71L] : SH2 binding enrichment value = 0.83

GLAELYEFQKK [CKAP5_Y1854_K1857Q_YF] has a reported SH2 binding enrichment of 0.666

The measured SH2 binding enrichment associated with RKKEEYKMALF [F8_Y1990_YF] reads 1.09

Per the record, QEIATYRRLRE [KRT17_Y384_L388R] has SH2 binding enrichment of 0.75

Lab note: measured SH2 binding enrichment of IDGLEYLHSQG [STK11_Y166] was 0.779

Sure, the documented SH2 binding enrichment for DRFDNYIEKVR [DES_Y122_A120D] is 0.836

The reported value for PFTRNYFVRAV [CYBA_Y87_YF] in terms of SH2 binding enrichment is 0.868

For record HGEAYYSEVKA [PAK5_Y182_P187A] the listed SH2 binding enrichment is 0.994

Lookup result for LEYNEYFRDLN [HPRT1_Y198_D194E] ; measured SH2 binding enrichment: 0.998

The recorded SH2 binding enrichment for entry KELANYFKLHH [AK7_Y390_YF] equals 0.945

Query FLTQHYDAKPQ [ANG_Y38] yields SH2 binding enrichment of 0.902

So for LSPPVYLTNEW [NRK_Y885_I880L] , the logged SH2 binding enrichment turned out to be 0.959

Sample IYLADYRIMEG [ALOX12B_Y318] ; SH2 binding enrichment observed: 0.982
